Overview of recorded koff for various binders
# system-name: T1, In house human CD8A-Fc (human, UniProt P01732 22-182, limits assumed)
# T1 construct: Captured on goat anti-human Fc on a ProteOn GLC chip; also called hCD8A-Fc; recombinant human CD8 alpha; not shown: linker with flag (and polyhistidine) tag and Fc of human IgG1
# T1 sequence (P01732 22-182 limits assumed): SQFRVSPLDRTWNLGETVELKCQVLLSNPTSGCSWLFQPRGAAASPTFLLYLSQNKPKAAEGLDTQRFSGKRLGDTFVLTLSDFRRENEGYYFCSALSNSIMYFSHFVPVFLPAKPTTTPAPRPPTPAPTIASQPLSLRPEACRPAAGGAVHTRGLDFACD
# experiment-description: SPR (ProteOn), captured hCD8A-Fc
The response must be a number in s⁻¹ with no trailing unit.

Sample answers from the record:
| binder | koff, s⁻¹ |
| --- | --- |
| P282ER9P1360_H3 (designed binder, FN3 domain) LPAPKNLVVSRVTEDSARLSWTAPDAAFDSFSIAYVEAELVGEAIQLVVPGSERSYDLTGLKPGTEYWVVILGVKGGNPSNPLGASFTT | 0.000242 |
| P283BR9P1363_E4 (designed binder, FN3 domain) LPAPKNLVVSRVTEDSARLSWIKSETSQPAFDSFLIQYQESEKVGEAIVLTVPGSERSYDLTGLKPGTEYTVSIYGVDVKWEGNRPVASNPLSAIFTT | 0.000329 |
| P282DR9P1359_A7 (designed binder, FN3 domain) LPAPKNLVVSRVTEDSARLSWTAPDAAFDSFRIGYPELEKLGYGEAIVLTVPGSERSYDLTGLKPGTEYWVIIWGVKGGENSWPLSAIFTT | 0.000754 |
| P282FR9P1361_A3 (designed binder, FN3 domain) LPAPKNLVVSRVTEDSARLSWTAPDAAFDSFDIWYAEYGYPGEAIVLTVPGSERSYDLTGLKPGTEYDVAIVGVKGGNRSYPLSAIFTT | 0.000757 |
| P282DR9P1359_E3 (designed binder, FN3 domain) LPAPKNLVVSRVTEDSARLSWTAPDAAFDSFAIAYPELPLGGEAIVLTVPGSERSYDLTGLKPGTEYFVIIYGVKGGVESFPLSAIFTT | 0.00263 |

get_value(item= P283AR9P1362_C6 (designed binder, FN3 domain) LPAPKNLVVSRVTEDSARLSWYPSDPPFDSFLIQYQESEKVGEAIVLTVPGSERSYDLTGLKPGTEYTVSIYGVPNYHSRRSYYYSNPLSAIFTT , readout=koff) returns 0.00109

get_value(item= P283AR9P1362_D4 (designed binder, FN3 domain) LPAPKNLVVSRVTEDSARLSWVREHDSFDSFLIQYQESEKVGEAIVLTVPGSERSYDLTGLKPGTEYTVSIYGVDVKYDIDSRPISSNPLSAIFTT , readout=koff) returns 9.72e-05

get_value(item= P282DR9P1359_C5 (designed binder, FN3 domain) LPAPKNLVVSRVTEDSARLSWTAPDAAFDSFWITYPEWPDPGGEAIVLTVPGSERSYDLTGLKPGTEYFVVIYGVKGGEIYSPLSAIFTT , readout=koff) returns 0.000174

get_value(item= P282BR9P1357_E5 (designed binder, FN3 domain) LPAPKNLVVSRVTEDSARLSWWPRKYQRPFDSFLIQYQESEKVGEAIVLTVPGSERSYDLTGLKPGTEYTVSIYGVDIEWIGNRPIASNPLSAIFTT , readout=koff) returns 0.00021
